Target: T1, Soluble IGF-1R (sIGF-1R), R&D Systems Cat. # 391-GR/CF (UniProt P08069 31-935, limits assumed)
T1 construct: extracellular domain
Test: phage ELISA
Please note: Ratio over Background exactly at 6 is Not satisfied. Only values below 6 get Satisfied.

Binder: RFDPFYSYFVNLLGASA [NNRPγ-4-A7-IR]
Label Value: Not satisfied

Binder: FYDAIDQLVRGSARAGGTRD [R20α-3-20E2-IR]
Label Value: Not satisfied

Binder: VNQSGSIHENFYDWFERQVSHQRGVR [H2CA-4-F10-IGFR]
Label Value: Satisfied

Binder: RLFYCGIQALGANLGYSGCV [R20α-4-20A12-IR]
Label Value: Not satisfied

Binder: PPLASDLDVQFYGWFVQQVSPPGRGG [H2CA-2-B3-IGFR]
Label Value: Satisfied

Binder: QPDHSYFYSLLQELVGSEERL [20E2B-4-F9-IGFR]
Label Value: Not satisfied

Binder: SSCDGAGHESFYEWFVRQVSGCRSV [H2CA-3-C8-IGFR]
Label Value: Satisfied

Binder: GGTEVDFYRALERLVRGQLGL [20E2B-3-D8-IGFR]
Label Value: Not satisfied

Binder: IIGGFYSYFNSVLRLGT [NNRPγ-4-A1-IR]
Label Value: Not satisfied

Binder: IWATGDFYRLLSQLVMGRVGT [20E2B-2-B8-IGFR]
Label Value: Satisfied

Binder: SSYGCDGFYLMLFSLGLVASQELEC [20C-3-A1-IGFR]
Label Value: Not satisfied

Binder: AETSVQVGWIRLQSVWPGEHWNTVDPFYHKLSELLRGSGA [B6L-4-D7-IR]
Label Value: Satisfied

Binder: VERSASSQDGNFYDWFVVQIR [A6S-2-D1-IR]
Label Value: Not satisfied

Binder: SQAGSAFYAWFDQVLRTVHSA [20E2Bβ-4-G6-IR]
Label Value: Not satisfied
